- target.or.test.system: Cellular tumor antigen p53 (Homo sapiens)
- procedure.summary: ATG_p53_CIS: Attagene CIS-FACTORIAL HepG2 Assay for human p53 Transcription Factor (AID 2282994)
- particulars: HepG2 p53 cis-element reporter, Attagene mRNA; actives raise or lower the signal
Active and inactive are the calls of the source. How the source made its calls: active means hit-call score of the fitted dose curve at least 0.9, where 1 is the maximum; inactive means score below 0.9.
Your reply should match one of these outcome classes. Y = active, N = inactive

Solved cases (2 shown):
CCOP(=O)(CN(CCO)CCO)OCC
N
CC12CC1(C)C(=O)N(c1cc(Cl)cc(Cl)c1)C2=O (stereo unspecified)
N

Exercise: # fetch the recorded call for `CCC[CH2][Sn]([CH2]CCC)([CH2]CCC)[O]C(=O)c1ccccc1` here
Solution: N

Exercise: Which result was noted for this compound in the test: `CCN(CC)C(=O)Cl`
Solution: N

Exercise: Per the records of this test, what outcome belongs to `CCOP(=S)(OCC)SCCS(=O)(=O)CC` ?
Solution: N

Exercise: Hello, I am checking results. What call was entered for `Oc1cccc2cccnc12` ?
Solution: N

Exercise: Dear colleague, could you share the recorded outcome for `CCCCCCCCCl` when you have a moment?
Solution: N

Exercise: Tell me the recorded outcome of this test for `O=C(CCl)CCl` .
Solution: Y

Exercise: Name the outcome recorded for `N#CCc1ccc(Cl)cc1` in the assay.
Solution: N

Exercise: How was `CC(C)c1ccc(CO)cc1` classified in this test?
Solution: N

Exercise: Could you please tell me the result logged for `COc1ccccc1OC` in this assay?
Solution: N
